Kindly supply the reported hERG current change (%, negative = inhibition) at 10uM values for the records listed here.
biological target: human ether-à-go-go-related gene (hERG) potassium channel (human); assay: primary screen, population patch clamp on CHO cells stably expressing hERG; higher = less effect of the substance;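 also: peak tail current of the secondary pulse compared with the same well before compound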
Sequence (Q12809 whole entry, looked up): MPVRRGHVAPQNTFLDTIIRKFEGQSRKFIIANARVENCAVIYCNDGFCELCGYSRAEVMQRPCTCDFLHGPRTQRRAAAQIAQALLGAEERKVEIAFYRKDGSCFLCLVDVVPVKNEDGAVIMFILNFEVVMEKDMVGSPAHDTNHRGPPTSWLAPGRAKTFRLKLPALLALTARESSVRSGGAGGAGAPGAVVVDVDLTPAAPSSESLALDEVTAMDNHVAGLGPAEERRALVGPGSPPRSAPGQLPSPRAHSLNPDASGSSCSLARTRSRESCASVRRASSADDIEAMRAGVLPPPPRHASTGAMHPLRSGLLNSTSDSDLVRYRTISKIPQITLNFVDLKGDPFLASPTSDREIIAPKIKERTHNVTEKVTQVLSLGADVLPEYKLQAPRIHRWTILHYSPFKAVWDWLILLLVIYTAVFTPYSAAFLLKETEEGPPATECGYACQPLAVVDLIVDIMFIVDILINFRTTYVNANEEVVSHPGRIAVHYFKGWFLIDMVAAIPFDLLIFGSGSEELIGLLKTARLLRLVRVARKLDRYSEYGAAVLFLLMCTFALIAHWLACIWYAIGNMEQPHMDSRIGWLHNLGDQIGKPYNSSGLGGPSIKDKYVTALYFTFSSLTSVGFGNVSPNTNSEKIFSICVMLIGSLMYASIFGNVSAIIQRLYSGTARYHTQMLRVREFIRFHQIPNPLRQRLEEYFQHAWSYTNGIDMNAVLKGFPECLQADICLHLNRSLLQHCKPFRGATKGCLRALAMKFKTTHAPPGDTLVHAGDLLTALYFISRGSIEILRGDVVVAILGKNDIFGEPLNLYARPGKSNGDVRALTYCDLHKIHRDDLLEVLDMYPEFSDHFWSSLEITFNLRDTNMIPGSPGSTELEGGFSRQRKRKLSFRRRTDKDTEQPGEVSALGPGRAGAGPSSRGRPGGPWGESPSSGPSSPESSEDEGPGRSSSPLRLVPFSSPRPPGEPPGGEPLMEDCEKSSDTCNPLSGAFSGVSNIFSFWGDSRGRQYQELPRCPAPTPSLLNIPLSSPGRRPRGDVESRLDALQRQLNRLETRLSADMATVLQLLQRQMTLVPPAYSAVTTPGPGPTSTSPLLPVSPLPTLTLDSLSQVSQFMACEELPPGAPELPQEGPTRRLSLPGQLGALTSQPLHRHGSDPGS
Screen size: about 310,000 compounds; about 14,000 (4.5%) showed an effect of 50% or more. The effect is printed as a negative number. This is one part of a sample in which strong results are shown more often than they occur.
Numbers only, in %.

Some solved entries appear below for comparison.
Cc1ccc(C)c(SCC(=O)NNC(=O)c2ccccc2)c1 | 9.78
C/C(=N\O)c1ccc2c(c1)OCCO2 | 14.3

Working through the 5 molecules below one at a time, give hERG current change (%, negative = inhibition) at 10uM for each.
1. CC(=O)c1ccc2c(c1)OCCOCCOc1ccccc1OCCOCCO2
2. COc1ccc(/C=N/N2CCOCC2)cc1Cn1nc(C)c([N+](=O)[O-])c1C
3. CN(C)CCCN(C(=O)COc1ccc(Cl)cc1)c1nc2cc3c(cc2s1)OCO3.Cl
4. CCn1cc(C(=O)NCc2ccco2)c(=O)c2cc(S(=O)(=O)N3CCc4ccccc4C3)ccc21
5. COc1ccc(C2=NCC(CSc3nccc(=O)[nH]3)S2)cc1 (stereo not drawn)

OUTPUT:
[-74.4, -10.8, -59.7, -15.3, 1.52]

###

Can you tell me hERG current change (%, negative = inhibition) at 10uM for the items I'm about to list?
biological target: human ether-à-go-go-related gene (hERG) potassium channel (human); assay: primary screen, population patch clamp on CHO cells stably expressing hERG; higher = less effect of the substance;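 also: peak tail current of the secondary pulse compared with the same well before compound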
Out of some 310,000 compounds screened, about 14,000 (4.5%) showed an effect of 50% or more. The effect is printed as a negative number. What follows is part of a selection rich in strong results, with near analogues and random picks from the rest.
Numbers only, in %.

# return hERG current change (%, negative = inhibition) at 10uM for each item in the list
1. O=C(c1cc(-c2ccc(Cl)cc2)n(-c2ccc(Cl)cc2)n1)N1CCOCC1
2. C(=N\Nc1nc(-c2ccccc2)cs1)/c1cccnc1
3. Fc1ccccc1COc1ccc(/C=N/n2cnnc2)cc1
4. Brc1ccc(-c2csc(N/N=C/c3cccnc3)n2)cc1
5. O=C(NCN1C(=O)C2C3C=CC(C3)C2C1=O)Nc1ccccn1 (centres unmarked)
6. CCOC(=O)N1CCc2c(sc(NC(=O)CCS(=O)(=O)c3ccccc3)c2C(N)=O)C1
7. Cc1ccc(-n2nc(C(=O)O)cc2-c2ccc(Cl)cc2)cc1
8. COc1cccc(NC(=O)NCCN2CCCCC2)c1

OUTPUT:
1. -80.8
2. -59.5
3. -12.2
4. 19.6
5. 9.67
6. -10.8
7. 24.9
8. -13.7

Fill in hERG current change (%, negative = inhibition) at 10uM for each of the 4 compounds listed.
1. COc1ccc(C(=O)c2c[nH]c(C(=O)NCc3cccnc3)c2)cc1
2. CC(C)N1CCc2c(sc(NC(=O)CCS(=O)(=O)c3ccccc3)c2C(N)=O)C1.Cl
3. COc1ccc(CCN2CC(C(=O)N(C)Cc3cccnc3)CC2=O)cc1OC (centres unmarked)
4. O=C(c1cc(-c2ccc(Cl)c(Cl)c2)on1)N1CCOCC1

OUTPUT:
[-12.7, -26, 8.53, -14.1]
